Measured values drawn from PubChem BioAssay (Tox21) for this set.

Experiment: qHTS assay to identify small molecule antagonists of the retinoid-related orphan receptor gamma (ROR-gamma) signaling pathway - cell viability counter screen (AID 1159520); also: nearly all actives have a fitted effect of over 50% in size
Conditions: Tet-on RORgamma CHO cells viability, ATP luminescence, 16 h; series mostly up to 92.4 µM
Protocol: U.S. Tox21 Program National Center for Advancing Translational Sciences [NCATS] NIH Chemical Genomics Center [NCGC] U.S. Environmental Protection Agency [EPA] National Institutes of Environmental Health Sciences [NIEHS] National Toxicology Program [NTP] U.S. Food and Drug Administration [FDA] […] Reporter gene activity was induced using Doxycycline Hyclate and measured after 16 hr incubation. […]
Inconclusive results are not listed. Active and inactive are the calls of the source. Calls follow the shape of the dose curve; as a rule, active = well fitted cell-killing curve with a large enough effect in the repeat runs; inconclusive = weak or mixed curves, or effect the other way; inactive = no such curve, though single readings can be large or run the other way.
Tick one outcome: active, inactive

A selection of reference data follows.
>  <Compound>
N#CSCSc1nc2ccccc2s1

>  <Category>
active

$$$$
>  <Compound>
C/C=C/C(=O)Oc1c(CCCCCC(C)C)cc([N+](=O)[O-])cc1[N+](=O)[O-]

>  <Category>
active

$$$$
>  <Compound>
CCCCCCCC/C=C\CCCCCCCC(=O)NCc1ccc(O)c(OC)c1

>  <Category>
inactive

$$$$
>  <Compound>
CCN(CC)c1cccc(C)c1

>  <Category>
inactive

$$$$
>  <Compound>
CCc1cccc(CC)c1N(COC)C(=O)CS(=O)(=O)O

>  <Category>
inactive

$$$$
>  <Compound>
COc1cccc(O)c1

>  <Category>
inactive

$$$$

Query: Recorded call for CCCCOCC ?
Result: inactive

Query: Next record, please: CCOB(OCC)OCC
Result: inactive

Query: Next record, please: CC1(C)C(=O)N(CO)C(=O)N1CO
Result: inactive

Query: Next record, please: C=C(C)C(=O)OCCC[Si](Cl)(Cl)Cl
Result: inactive

Query: Next record, please: Cn1cccc1
Result: inactive

Query: Next record, please: C=C1C(C)(C)[C@@]2(Cl)C(Cl)[C@]1(Cl)C(Cl)(Cl)C2(Cl)Cl (some centres undefined)
Result: active

Query: Next record, please: CCC1(c2cnc[nH]2)Cc2ccccc2C1
Result: inactive

Query: Next record, please: CCCCCCCC(C)=O
Result: inactive

====

test: qHTS assay to identify small molecule antagonists of the sonic hedgehog signaling (Shh) pathway - cell viability counter screen (AID 1259367); conditions: NIH/3T3 Gli1-Luc viability, CellTiter-Fluor, 24 h; series mostly up to 92.4 µM; also: nearly all actives have a fitted effect of over 55% in size; also: potency is read from the fitted curve at half-maximal effect
Results filed as inconclusive are left out. Active and inactive are the calls of the source. The call rests on the fitted dose curve; in most records, active means well fitted cell-killing curve with a large enough effect in the repeat runs; inconclusive means weak or mixed curves, or effect the other way; inactive means no such curve, though single readings can be large or run the other way.
Parameter Measured: Potency

A selection of reference data follows.
>  <Compound>
CC(C)(c1cc(Br)c(OCCO)c(Br)c1)c1cc(Br)c(OCCO)c(Br)c1

>  <Potency>
inactive

$$$$
>  <Compound>
CCc1cccc(CC)c1N(COC)C(=O)CS(=O)(=O)O

>  <Potency>
inactive

$$$$
>  <Compound>
CC(C)(C)c1n[nH]c(=O)n(N)c1=O

>  <Potency>
inactive

$$$$
>  <Compound>
C[Si](C)O[Si](C)C

>  <Potency>
inactive

$$$$
>  <Compound>
Cc1cccc(C)n1

>  <Potency>
inactive

$$$$
>  <Compound>
CCCCC(CC)COC(=O)c1ccc(O)cc1 (stereo not drawn)

>  <Potency>
54.3 µM (active)

$$$$
>  <Compound>
C=C1C(C)(C)[C@@]2(Cl)C(Cl)[C@]1(Cl)C(Cl)(Cl)C2(Cl)Cl (stereo partly drawn)

>  <Potency>
inactive

$$$$
>  <Compound>
Cc1c(C(=O)O)cccc1[N+](=O)[O-]

>  <Potency>
55.4 µM (active)

$$$$

The record that follows has no Potency shown yet.
Query: Value lookup for Potency; key = CCCCCCCOC(=O)c1ccccc1C(=O)OCCCCCCC
Result: inactive

====

test: qHTS assay to identify small molecule antagonists of the androgen receptor (AR) signaling pathway using the MDA cell line - cell viability counter screen (AID 743041; also: nearly all actives have a fitted effect of over 45% in size); settings: MDA-kb2 viability, CellTiter-Fluor, 16 h, cells co-treated with R1881 androgen agonist; series mostly up to 70.3 µM
Records with an inconclusive call do not appear. The source made the active and inactive calls. The call rests on the fitted dose curve; in most records, active means well fitted cell-killing curve with a large enough effect in the repeat runs; inconclusive means weak or mixed curves, or effect the other way; inactive means flat fitted curve, though single readings scatter.
Tick one outcome: class 1 = active, class 0 = inactive

A selection of reference data follows.
>  <Compound>
CC(C)c1cccc(C(C)C)c1N1C(=O)c2ccc(O)cc2C1=O

>  <Category>
class 0

$$$$
>  <Compound>
CC(CN(C)C)CN1c2ccccc2CCc2ccccc21 (stereo not drawn)

>  <Category>
class 0

$$$$

Query: Recorded call for CN(Cc1cc(Br)cc(Br)c1N)C1CCCCC1 ?
Result: class 0

Query: Next record, please: O=C(O)c1cccc(Cl)n1
Result: class 0

Query: Next record, please: ClC/C=C\CCl
Result: class 0

Query: Next record, please: C[C@@]12C(=O)OC(=O)[C@]1(C)C1CCC2O1
Result: class 1

Query: Next record, please: CCOC(=O)COc1ccc(C)cc1
Result: class 0

Query: Next record, please: C[C@@H]1CC[C@H]2C(C)(C)[C@H]3C[C@@]12CC[C@@]3(C)O
Result: class 0

Query: Next record, please: CCCCCCCCCCCCCCNCCO
Result: class 0

====

target: Cytochrome P450 2D6 (Homo sapiens) (UniProt P10635); experiment: Cytochrome P450 Family 2 Subfamily D Member 6 (CYP2D6) small molecule antagonists: luciferase reporter qHTS assay (AID 1671196); conditions: P450-Glo CYP2D6 enzyme assay, luciferin luminescence, 1 h; series mostly up to 115 µM; also: nearly all actives have a fitted effect of over 50% in size
Sequence (P10635 whole entry, looked up): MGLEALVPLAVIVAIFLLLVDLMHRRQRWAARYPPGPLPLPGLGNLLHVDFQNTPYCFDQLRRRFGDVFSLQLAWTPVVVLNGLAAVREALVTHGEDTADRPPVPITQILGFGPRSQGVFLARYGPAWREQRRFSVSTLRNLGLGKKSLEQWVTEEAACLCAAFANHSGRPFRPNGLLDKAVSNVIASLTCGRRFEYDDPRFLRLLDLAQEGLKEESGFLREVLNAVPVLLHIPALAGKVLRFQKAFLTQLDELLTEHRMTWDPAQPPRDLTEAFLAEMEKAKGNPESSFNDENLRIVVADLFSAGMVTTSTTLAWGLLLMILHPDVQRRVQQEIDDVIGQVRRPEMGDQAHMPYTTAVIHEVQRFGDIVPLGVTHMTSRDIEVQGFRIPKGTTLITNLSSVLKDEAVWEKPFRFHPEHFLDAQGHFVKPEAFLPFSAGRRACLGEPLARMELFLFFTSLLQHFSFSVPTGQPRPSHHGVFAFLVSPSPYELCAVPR
Records with an inconclusive call do not appear. Activity calls are given as the source filed them. The call rests on the fitted dose curve; in most records, active means well fitted inhibition curve with a large enough effect in the repeat runs; inconclusive means weak or mixed curves; inactive means no such curve, though single readings can be large or run the other way.
Tick one outcome: active, inactive

A selection of reference data follows.
>  <Compound>
OCCCc1cccnc1

>  <Category>
inactive

$$$$
>  <Compound>
CCCC(CC)CCCCCCCN (configuration not stated)

>  <Category>
active

$$$$

Query: Recorded call for CCOCOCC ?
Result: inactive

Query: Next record, please: O=C1NCCN1CCN1CCC(c2cn(-c3ccc(F)cc3)c3ccc(Cl)cc23)CC1
Result: active

Query: Next record, please: NC1(c2ccc(-c3nc4ccn5c(=O)[nH]nc5c4cc3-c3ccccc3)cc2)CCC1
Result: inactive

Query: Next record, please: COc1cc(C(=O)NS(=O)(=O)c2ccccc2C)ccc1Cc1cn(C)c2ccc(NC(=O)OC3CCCC3)cc12
Result: inactive

Query: Next record, please: O=S(=O)(O)CCCN1CCOCC1
Result: inactive

====

assay: qHTS RealTime-Glo MT Cell Viability Assay in HepG2 cells - 24 hour (AID 1224867); details: RealTime-Glo luminescence; series mostly up to 76.8 µM; also: nearly all actives have a fitted effect of over 50% in size
Inconclusive results are not listed. Active and inactive are the calls of the source. Calls follow the shape of the dose curve; as a rule, active = well fitted cell-killing curve with a large enough effect in the repeat runs; inconclusive = weak or mixed curves; inactive = flat fitted curve, though single readings scatter.
Tick one outcome: active, inactive

A selection of reference data follows.
>  <Compound>
CCCCCCCC(=O)OCC

>  <Category>
inactive

$$$$
>  <Compound>
CCc1ccc(C)nc1

>  <Category>
inactive

$$$$

Query: Recorded call for O=C1NCCN1CCN1CCC(c2cn(-c3ccc(F)cc3)c3ccc(Cl)cc23)CC1 ?
Result: active

Query: Next record, please: NCCCCCCNCCCCCCN
Result: inactive

Query: Next record, please: Cc1ccc(CCn2c3c(c4cc(Cl)ccc42)CN(C)CC3)cn1
Result: inactive

Query: Next record, please: O=C(O)CCCCCCC(=O)O
Result: inactive

Query: Next record, please: C[C@@]12C(=O)OC(=O)[C@]1(C)C1CCC2O1
Result: active

Query: Next record, please: CCCCCCCCCC(=O)N(C)C
Result: inactive

Query: Next record, please: CCN(CC)c1cccc(C)c1
Result: inactive

Query: Next record, please: C=C(C)C(=O)OCCC[Si](Cl)(Cl)Cl
Result: inactive

Query: Next record, please: CC1CNCC(C)O1 (centres undefined)
Result: inactive

Query: Next record, please: CCCCC(CC)COC(=O)c1ccc(O)cc1 (centres undefined)
Result: inactive

Query: Next record, please: CCc1cccc(C)c1
Result: inactive

====

Test: qHTS assay for identifying genotoxic compounds that show differential cytotoxicity against isogenic chicken DT40 cell lines with known DNA damage response pathways - Rad54/Ku70 mutant cell line (AID 743015); also: nearly all actives have a fitted effect of over 60% in size
Settings: DT40 Rad54/Ku70 mutant viability, CellTiter-Glo, 40 h; series mostly up to 66.8 µM
Text: National Center for Advancing Translational Sciences [NCATS] NIH Chemical Genomics Center [NCGC] U.S. Environmental Protection Agency [EPA] National Institutes of Environmental Health Sciences [NIEHS] National Toxicology Program [NTP] U.S. Food and Drug Administration [FDA] DNA repair pathways play a critical role in cellular homeostasis by repairing DNA damage induced by endogenous processes and xenobiotics. […]
Results filed as inconclusive are left out. Active and inactive are the calls of the source. Calls come from the whole dose curve; as a rule, active = well fitted cell-killing curve with a large enough effect in the repeat runs; inconclusive = weak or mixed curves; inactive = no such curve, though single readings can be large or run the other way.
Tick one outcome: active, inactive

A selection of reference data follows.
>  <Compound>
COC(=O)CC#N

>  <Category>
inactive

$$$$
>  <Compound>
CCCSS/C(CCO)=C(\C)N(C=O)Cc1cnc(C)nc1N

>  <Category>
active

$$$$
>  <Compound>
C=CC(=O)OCCOCC(CC)(COCCOC(=O)C=C)COCCOC(=O)C=C

>  <Category>
active

$$$$
>  <Compound>
CC(C)c1cccc(C(C)C)c1N1C(=O)c2ccc(O)cc2C1=O

>  <Category>
active

$$$$
>  <Compound>
Oc1c(Br)cc(Br)c2cccnc12

>  <Category>
active

$$$$

Let us examine a further case.
Query: Recorded call for O=C1OC(=O)c2cccc3cccc1c23 ?
Result: active
